- measured-on: hemagglutinin (HA) of influenza B/Lee/40 (Old) (influenza B virus) (UniProt P03460)
- Sequence (P03460 16-584 limits assumed): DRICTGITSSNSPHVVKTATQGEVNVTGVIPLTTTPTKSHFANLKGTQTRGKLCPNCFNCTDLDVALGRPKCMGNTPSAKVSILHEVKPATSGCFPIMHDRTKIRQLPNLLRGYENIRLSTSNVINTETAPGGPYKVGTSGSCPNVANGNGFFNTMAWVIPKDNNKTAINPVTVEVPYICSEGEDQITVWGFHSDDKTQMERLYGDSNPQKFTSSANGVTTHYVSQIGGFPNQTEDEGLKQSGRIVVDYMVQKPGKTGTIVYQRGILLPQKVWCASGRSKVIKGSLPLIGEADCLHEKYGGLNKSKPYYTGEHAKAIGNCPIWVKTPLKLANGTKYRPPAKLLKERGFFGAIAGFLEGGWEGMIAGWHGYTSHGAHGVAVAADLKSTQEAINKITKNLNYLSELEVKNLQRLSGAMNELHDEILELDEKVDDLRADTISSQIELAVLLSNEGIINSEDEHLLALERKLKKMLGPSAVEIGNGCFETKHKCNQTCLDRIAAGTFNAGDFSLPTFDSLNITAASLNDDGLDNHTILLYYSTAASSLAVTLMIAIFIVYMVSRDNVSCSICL
- protocol-text: cell-based or functional assay
For each of the binders below, state its VNA IC50.

Using the record for SD3003 (VHH) VHH: EVQLVESGGGLVQPGGSLRLSCAASGFTFSTSWMSWLRQAPGKGLEWVSVINTDGGTYYADSVKGRFTISRDNSKDTLYLQMNSLRAEDTAVYYCAKDWGGPEPTRGQGTQVTVSS , state its measured VNA IC50.
> 1 µM

Identify the reported VNA IC50 for the following entry. SD3101 (VHH) VHH: EVQLVESGGGLVQPGGSLRLSCAISGLSLDTYAVGWFRQAPGKEREGVSCISSGHGSTYYADSVKGRFTISTDNSKNTLYLQMNSLRAEDTAVYYCATESRYYCSDNWPAPQRYIYWGQGTLVTVSS
> 1 µM

Indicate the recorded VNA IC50 value for this binder: SD3007 (VHH) VHH: EVQLLESGGGLVQPGGSLRLSCAASGFTLENKAIGWFRQAPGKEREGVSCISKSGSWTYYADSVKGRFTISRDNSKNTVYLQMNSLRAEDTAVYYCATTTAGGGLCWDGTTFSRLASSWGQGTQVTVSS
> 1 µM

Consider the binder SD3004 (VHH) VHH: EVQLVESGGGLVQPGGSLRLSCAASGFTFSTSWMYWLRQAPGKGLEWVSVINTDGGTYYADSVKGRFTISRDNSKDTLYLQMNSLRAEDTAVYYCAKDWGGPEPTRGQGTQVTVSS . State its measured VNA IC50.
> 1 µM

Data credit: patent US20190359693A1
